Cited source for all entries: patent US20150203579A1

testedOn: T1, human PD-1 dimer (human PD-1-mFc or human PD-1-hFc) (human, UniProt Q15116 25-170)
T1 construct: also called hPD-1-mFc; hPD1-hFc
testProtocol: SPR, mAb captured, 25C;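 note: surface plasmon resonance on Biacore, PD-1 flowed over captured anti-PD-1 antibodies, rate constants from a 1:1 binding model fit, KD taken as kd/ka and t½ as ln2/(60·kd)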
parameterMeasured: t½ (h)

- binder: "H4H7795N2 (antibody, human IgG4 S228P, kappa, V domains shown) VH: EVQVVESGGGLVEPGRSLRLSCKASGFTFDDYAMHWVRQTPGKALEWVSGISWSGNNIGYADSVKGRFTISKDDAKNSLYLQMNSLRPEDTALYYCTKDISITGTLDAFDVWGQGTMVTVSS VL: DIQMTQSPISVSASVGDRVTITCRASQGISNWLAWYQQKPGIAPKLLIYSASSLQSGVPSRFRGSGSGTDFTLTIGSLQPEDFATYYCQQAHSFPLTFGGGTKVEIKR"
  parameterMeasured: "t½"
  readoutUnit: "h"
  resultNumber: 2.08
- binder: "H4H7798N (antibody, human IgG4 S228P, kappa, V domains shown) VH: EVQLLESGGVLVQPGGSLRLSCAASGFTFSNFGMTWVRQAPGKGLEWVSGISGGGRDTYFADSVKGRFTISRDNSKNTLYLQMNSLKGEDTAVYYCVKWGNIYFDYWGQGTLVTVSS VL: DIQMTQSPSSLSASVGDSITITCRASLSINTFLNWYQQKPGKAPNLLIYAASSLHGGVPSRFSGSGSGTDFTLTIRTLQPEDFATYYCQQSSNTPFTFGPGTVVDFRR"
  parameterMeasured: "t½"
  readoutUnit: "h"
  resultNumber: 3.57
- binder: "H1M7800N (antibody, mouse IgG1, V domains shown, Human variable regions, mouse IgG1 Fc) VH: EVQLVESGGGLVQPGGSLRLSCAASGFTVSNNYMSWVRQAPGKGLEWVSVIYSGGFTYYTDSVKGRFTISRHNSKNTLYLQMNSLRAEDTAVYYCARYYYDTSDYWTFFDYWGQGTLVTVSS VL: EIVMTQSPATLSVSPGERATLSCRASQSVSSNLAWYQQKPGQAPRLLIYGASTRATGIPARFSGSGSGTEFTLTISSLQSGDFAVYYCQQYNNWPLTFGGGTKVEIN"
  parameterMeasured: "t½"
  readoutUnit: "h"
  resultNumber: 2.5
- binder: "H2aM7780N (antibody, mouse IgG2a, V domains shown, Human variable regions, mouse IgG2a Fc (H2aM prefix); also called H2M7780N) VH: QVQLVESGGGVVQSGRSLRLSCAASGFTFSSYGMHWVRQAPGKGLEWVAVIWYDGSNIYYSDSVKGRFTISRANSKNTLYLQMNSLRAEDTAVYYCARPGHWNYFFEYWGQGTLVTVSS VL: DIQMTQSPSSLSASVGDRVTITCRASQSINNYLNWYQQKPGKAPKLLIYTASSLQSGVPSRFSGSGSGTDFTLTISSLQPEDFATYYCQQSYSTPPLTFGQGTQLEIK"
  parameterMeasured: "t½"
  readoutUnit: "h"
  resultNumber: 19.4
- binder: "H2aM7796N (antibody, mouse IgG2a, V domains shown, Human variable regions, mouse IgG2a Fc; also called H2M7796N) VH: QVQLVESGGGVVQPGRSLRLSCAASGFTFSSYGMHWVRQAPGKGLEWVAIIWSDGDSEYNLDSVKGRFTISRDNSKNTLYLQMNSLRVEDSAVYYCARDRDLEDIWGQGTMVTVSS VL: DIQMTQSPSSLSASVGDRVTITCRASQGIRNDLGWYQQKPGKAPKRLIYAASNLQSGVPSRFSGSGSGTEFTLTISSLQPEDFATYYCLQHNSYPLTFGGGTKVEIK"
  parameterMeasured: "t½"
  readoutUnit: "h"
  resultNumber: 2.22
- binder: "H2aM7795N (antibody, mouse IgG2a, V domains shown, Human variable regions, mouse IgG2a Fc; also called H2M7795N) VH: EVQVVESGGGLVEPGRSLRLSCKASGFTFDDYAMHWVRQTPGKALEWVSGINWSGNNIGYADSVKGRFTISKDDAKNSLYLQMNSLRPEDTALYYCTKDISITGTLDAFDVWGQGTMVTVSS VL: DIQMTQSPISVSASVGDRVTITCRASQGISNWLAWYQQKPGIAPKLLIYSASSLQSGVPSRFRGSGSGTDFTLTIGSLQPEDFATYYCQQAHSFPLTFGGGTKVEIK"
  parameterMeasured: "t½"
  readoutUnit: "h"
  resultNumber: 6.13
- binder: "H2aM7798N (antibody, mouse IgG2a, V domains shown, Human variable regions, mouse IgG2a Fc; also called H2M7798N) VH: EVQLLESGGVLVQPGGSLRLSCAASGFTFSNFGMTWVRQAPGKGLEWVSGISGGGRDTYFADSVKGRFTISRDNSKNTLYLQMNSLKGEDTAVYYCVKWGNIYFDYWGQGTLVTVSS VL: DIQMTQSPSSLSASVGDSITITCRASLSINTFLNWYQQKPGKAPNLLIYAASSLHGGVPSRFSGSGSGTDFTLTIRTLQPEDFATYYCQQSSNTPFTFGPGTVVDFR"
  parameterMeasured: "t½"
  readoutUnit: "h"
  resultNumber: 8.42
- binder: "H1M7789N (antibody, mouse IgG1, V domains shown, Human variable regions, mouse IgG1 Fc) VH: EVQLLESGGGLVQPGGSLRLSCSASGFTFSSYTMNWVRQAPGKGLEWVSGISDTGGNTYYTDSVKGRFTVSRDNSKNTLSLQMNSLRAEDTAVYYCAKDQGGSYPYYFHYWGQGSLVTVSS VL: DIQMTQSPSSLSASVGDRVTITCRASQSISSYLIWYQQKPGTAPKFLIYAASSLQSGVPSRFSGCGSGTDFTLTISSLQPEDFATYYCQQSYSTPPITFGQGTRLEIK"
  parameterMeasured: "t½"
  readoutUnit: "h"
  resultNumber: 4.47
- binder: "H1M7799N (antibody, mouse IgG1, V domains shown, Human variable regions, mouse IgG1 Fc) VH: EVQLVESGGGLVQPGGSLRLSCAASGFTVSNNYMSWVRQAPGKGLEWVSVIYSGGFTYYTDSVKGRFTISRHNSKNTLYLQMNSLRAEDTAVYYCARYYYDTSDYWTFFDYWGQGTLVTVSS VL: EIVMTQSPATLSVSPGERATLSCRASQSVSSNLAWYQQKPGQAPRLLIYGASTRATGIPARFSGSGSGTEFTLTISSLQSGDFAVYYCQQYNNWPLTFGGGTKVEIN"
  parameterMeasured: "t½"
  readoutUnit: "h"
  resultNumber: 2.25
- binder: "H2aM7791N (antibody, mouse IgG2a, V domains shown, Human variable regions, mouse IgG2a Fc; also called H2M7791N) VH: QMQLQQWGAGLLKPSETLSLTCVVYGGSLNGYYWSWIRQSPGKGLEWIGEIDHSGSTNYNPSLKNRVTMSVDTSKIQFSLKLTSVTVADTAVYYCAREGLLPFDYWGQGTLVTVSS VL: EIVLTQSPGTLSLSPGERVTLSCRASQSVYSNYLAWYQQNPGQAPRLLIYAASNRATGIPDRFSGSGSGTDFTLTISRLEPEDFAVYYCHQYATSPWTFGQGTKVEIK"
  parameterMeasured: "t½"
  readoutUnit: "h"
  resultNumber: 1.9
